System under test: T1, human PAR-2 (human, UniProt P55085 26-397)
T1 sequence: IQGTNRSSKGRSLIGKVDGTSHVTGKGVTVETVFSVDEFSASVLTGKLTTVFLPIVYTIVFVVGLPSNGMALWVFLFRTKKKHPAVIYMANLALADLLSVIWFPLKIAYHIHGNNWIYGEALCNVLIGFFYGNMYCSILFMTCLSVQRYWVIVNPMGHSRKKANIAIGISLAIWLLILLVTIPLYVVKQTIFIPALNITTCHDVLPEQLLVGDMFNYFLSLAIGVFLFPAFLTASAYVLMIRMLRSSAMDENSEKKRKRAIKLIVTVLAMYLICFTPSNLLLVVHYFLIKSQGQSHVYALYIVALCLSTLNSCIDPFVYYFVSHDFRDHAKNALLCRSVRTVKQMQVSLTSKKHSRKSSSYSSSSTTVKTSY
Protocol: cell-based or functional assay
Reported endpoint: IC50, PAR-2 β-arrestin cell assay (nM)
Numbers only, in nM.

{"Binder": "Ab335 (antibody, human IgG4, V domains shown, also called Anti-PAR-2 antibody # 335) VH: QVQLKESGPGLVQPSQTLSLSCTVSGFSLSTYGVIWVRQPPGKGLEWMGVIWGNGNTNYNSALKSRLSISRDTSKSQVFLKMNNLQSEDTAMYFCGRWRGYKDYPFDYWGQGVKVTVSS VL: DIQMTQSPSFLSASVGDRVTINCKASRNIYKYLDWYQQKLGEAPKLLIYNTNNLHTGIPSRFSGSGSGTDFTLTISSLQPEDVATYFCLQHNSGWTFGGGTKLELK", "IC50, PAR-2 β-arrestin cell assay, nM": 2.5}

Give one value of IC50, PAR-2 β-arrestin cell assay per listed binder.
1. Ab342 (antibody, human IgG4, V domains shown, also called Anti-PAR-2 antibody # 342) VH: QVQLKESGPGLVQPSQTLSLSCTVSGFSLNTYGVIWVRQPPGKGLDWMGVIWGNGNTYYDSALKSRLSISRDTSKSQIFLKMNNLQSEDTAMYFCGRWRGFKDYPFDYWGQGVKVTVSS VL: DIQMTQTPSFLSASVGDRVTINCRASQNIYKYLDWYQLKLGEAPKLLIYNTNTLHTGIPSRFSGSGSGTDFTLTISSLQPEDVATYFCLQHNSGWAFGGGTKLELK
2. Ab313 (antibody, human IgG4, V domains shown, also called Anti-PAR-2 antibody # 313) VH: EVQLKESGPGLVQPSQTLSLTCTVSGFSLTDYSVHWVRQPPGKGLEWMGVMWSGGSTSYNSPLKSRLSISRDTSKSQVFLKTNSLQTEDTAIYYCTRARPTVATLDYWGQGVMVTVSS VL: DIQMTQSPSVLSASVGDRVILNCKASQKINKYLNWYQQKLGEAPKLLIYTTNNLQTGIPSRFSGSGSGTDFTLTISSLQPEDFATYFCFQHSSWPTFGAGTKLELK

1. 1.9
2. 8.2
